Field: MIC. Provide a value for each of the compounds that follow.
System: Staphylococcus aureus
Test: In vitro antibacterial activity of A5177 strain of Gram positive bacteria Staphylococcus aureus
Format: functional
Give bare numbers, in µg/mL.

State the recorded MIC for every item in the following list.
1. CC[C@H]1OC(=O)/C(C)=C/[C@H](C)[C@@H](O[C@@H]2O[C@H](C)C[C@H](N(C)C)[C@H]2O)[C@@](C)(OC)C[C@@H](C)C(=O)[C@H](C)[C@H]2N(NCc3ccccn3)C(=O)O[C@]12C
2. CC[C@H]1OC(=O)/C(C)=C/[C@H](C)[C@@H](O[C@@H]2O[C@H](C)C[C@H](N(C)C)[C@H]2O)[C@@](C)(OC)C[C@@H](C)C(=O)[C@H](C)[C@H]2N(NCCCc3ccccc3Cl)C(=O)O[C@]12C
3. CC[C@H]1OC(=O)/C(C)=C/[C@H](C)[C@@H](O[C@@H]2O[C@H](C)C[C@H](N(C)C)[C@H]2O)[C@@](C)(OC)C[C@@H](C)C(=O)[C@H](C)[C@H]2N(NCCCc3cccc(N)c3)C(=O)O[C@]12C

Response line:
0.39
0.2
0.2

* * *

Test system: Streptococcus pneumoniae
Test: In vitro antibacterial activity of 5979 strain of Gram positive bacteria Streptococcus pneumoniae
Assay type: functional
attribute measured: MIC

>  <chemical smiles>
CC[C@H]1OC(=O)/C(C)=C/[C@H](C)[C@@H](O[C@@H]2O[C@H](C)C[C@H](N(C)C)[C@H]2O)[C@@](C)(OC)C[C@@H](C)C(=O)[C@H](C)[C@H]2N(NCc3ccc(OC)cc3)C(=O)O[C@]12C

>  <MIC>
> 64 µg/mL

$$$$
>  <chemical smiles>
CC[C@H]1OC(=O)/C(C)=C/[C@H](C)[C@@H](O[C@@H]2O[C@H](C)C[C@H](N(C)C)[C@H]2O)[C@@](C)(OC)C[C@@H](C)C(=O)[C@H](C)[C@H]2N(NCCc3ccccc3)C(=O)O[C@]12C

>  <MIC>
> 64 µg/mL

$$$$
>  <chemical smiles>
CC[C@H]1OC(=O)/C(C)=C/[C@H](C)[C@@H](O[C@@H]2O[C@H](C)C[C@H](N(C)C)[C@H]2O)[C@@](C)(OC)C[C@@H](C)C(=O)[C@H](C)[C@H]2N(NCCCc3ccc(OC)cc3)C(=O)O[C@]12C

>  <MIC>
> 64 µg/mL

$$$$
>  <chemical smiles>
CC[C@H]1OC(=O)/C(C)=C/[C@H](C)[C@@H](O[C@@H]2O[C@H](C)C[C@H](N(C)C)[C@H]2O)[C@@](C)(OC)C[C@@H](C)C(=O)[C@H](C)[C@H]2N(NCc3ccc(N(C)C)c4ccccc34)C(=O)O[C@]12C

>  <MIC>
32 µg/mL

$$$$
>  <chemical smiles>
CC[C@H]1OC(=O)/C(C)=C/[C@H](C)[C@@H](O[C@@H]2O[C@H](C)C[C@H](N(C)C)[C@H]2O)[C@@](C)(OC)C[C@@H](C)C(=O)[C@H](C)[C@H]2N(NCc3ccc(O)cc3)C(=O)O[C@]12C

>  <MIC>
> 128 µg/mL

$$$$

State the recorded MIC for every item in the following list.
1. CC[C@H]1OC(=O)/C(C)=C/[C@H](C)[C@@H](O[C@@H]2O[C@H](C)C[C@H](N(C)C)[C@H]2O)[C@@](C)(OC)C[C@@H](C)C(=O)[C@H](C)[C@H]2N(NCc3cc([N+](=O)[O-])ccc3O)C(=O)O[C@]12C
2. CC[C@H]1OC(=O)/C(C)=C/[C@H](C)[C@@H](O[C@@H]2O[C@H](C)C[C@H](N(C)C)[C@H]2O)[C@@](C)(OC)C[C@@H](C)C(=O)[C@H](C)[C@H]2N(NCc3ccc([N+](=O)[O-])cc3)C(=O)O[C@]12C
3. CC[C@H]1OC(=O)/C(C)=C/[C@H](C)[C@@H](O[C@@H]2O[C@H](C)C[C@H](N(C)C)[C@H]2O)[C@@](C)(OC)C[C@@H](C)C(=O)[C@H](C)[C@H]2N(NCCCn3nnc4ccccc43)C(=O)O[C@]12C

Response line:
["> 128 µg/mL", "> 128 µg/mL", "> 128 µg/mL"]

Could you report MIC for every entry in the following list?
1. CC[C@H]1OC(=O)/C(C)=C/[C@H](C)[C@@H](O[C@@H]2O[C@H](C)C[C@H](N(C)C)[C@H]2O)[C@@](C)(OC)C[C@@H](C)C(=O)[C@H](C)[C@H]2N(NCCCc3ccc(Cl)cc3Cl)C(=O)O[C@]12C
2. CC[C@H]1OC(=O)/C(C)=C/[C@H](C)[C@@H](O[C@@H]2O[C@H](C)C[C@H](N(C)C)[C@H]2O)[C@@](C)(OC)C[C@@H](C)C(=O)[C@H](C)[C@H]2N(NC/C=C/c3cccc4ccccc34)C(=O)O[C@]12C

Response line:
["8 µg/mL", "16 µg/mL"]

Consider the following items and state reported MIC for each.
1. CC[C@H]1OC(=O)/C(C)=C/[C@H](C)[C@@H](O[C@@H]2O[C@H](C)C[C@H](N(C)C)[C@H]2O)[C@@](C)(OC)C[C@@H](C)C(=O)[C@H](C)[C@H]2N(NCCCc3cccc(Cl)c3)C(=O)O[C@]12C
2. CC[C@H]1OC(=O)/C(C)=C/[C@H](C)[C@@H](O[C@@H]2O[C@H](C)C[C@H](N(C)C)[C@H]2O)[C@@](C)(OC)C[C@@H](C)C(=O)[C@H](C)[C@H]2N(NCCCc3cccc(O)c3)C(=O)O[C@]12C

Response line:
["32 µg/mL", "> 128 µg/mL"]

Ref: ChEMBL document CHEMBL1131216
